Molecular target: hRRM1 (Homo sapiens, UniProt P23921)
Construct: made in house; host or cells: E. coli BL21 DE3 (RIL)
Sequence (P23921 whole entry): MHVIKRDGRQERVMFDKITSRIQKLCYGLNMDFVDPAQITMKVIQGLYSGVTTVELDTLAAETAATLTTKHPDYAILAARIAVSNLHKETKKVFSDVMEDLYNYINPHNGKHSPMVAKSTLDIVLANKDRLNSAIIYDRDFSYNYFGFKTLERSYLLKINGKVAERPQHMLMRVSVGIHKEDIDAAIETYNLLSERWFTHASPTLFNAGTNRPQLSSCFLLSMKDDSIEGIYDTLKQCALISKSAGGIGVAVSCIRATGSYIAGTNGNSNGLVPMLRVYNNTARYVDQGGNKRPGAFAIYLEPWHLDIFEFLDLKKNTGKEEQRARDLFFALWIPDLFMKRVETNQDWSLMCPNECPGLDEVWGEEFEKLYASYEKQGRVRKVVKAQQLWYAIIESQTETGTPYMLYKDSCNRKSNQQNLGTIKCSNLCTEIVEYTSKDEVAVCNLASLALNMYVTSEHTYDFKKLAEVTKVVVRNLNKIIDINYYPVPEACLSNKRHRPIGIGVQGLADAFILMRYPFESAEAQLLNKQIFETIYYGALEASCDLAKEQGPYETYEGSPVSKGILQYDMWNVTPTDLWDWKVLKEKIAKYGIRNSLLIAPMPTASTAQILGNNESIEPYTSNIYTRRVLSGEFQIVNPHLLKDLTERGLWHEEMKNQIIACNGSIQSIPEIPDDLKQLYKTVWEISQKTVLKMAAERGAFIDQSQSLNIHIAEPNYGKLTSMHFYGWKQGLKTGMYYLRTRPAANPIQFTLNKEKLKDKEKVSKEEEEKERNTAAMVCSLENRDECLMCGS
Assay: hRRM1 enzyme activity inhibition (RR radioactivity assay, boronate chromatography)
Assay type: biochemical
Set-up: key: Compounds which are found to have extremely high potency are classified as “****”; Compounds which are found to have very high potency of protein synthesis are classified as “***”
Settings: potency ranking by minimum concentration required to inhibit enzyme activity; six concentrations 1-100 μM incubated with hRRM1 30 minutes, diluted by a factor of 5
Protocol: Activity measurements in Table 2 is performed as described below. Briefly, six concentrations of the compounds ranging from 1-100 μM of the compounds are incubated on ice with 2.5 μmol of hRRM1 for 30 minutes. The assay sample was then diluted by a factor of 5, and enzyme activity was assayed in triplicate. […] The IC50 are determined using, boronate chromatography. […]
MEASURE_NAME: Activity

// worked examples, Activity included
Oc1ccccc1-c1nc(-c2ccccc2-c2ccsc2)no1; ***
COc1ccc(Br)c(-c2nnc(-c3ccccc3O)o2)c1O; ***
Oc1ccccc1-c1nnc(-c2cc(-c3ccccc3)ccc2O)o1; ***
c1cncc(-c2noc(-c3ccco3)n2)c1; ***
Oc1ccccc1-c1noc(-c2cccnc2)n1; ****

Would you be so kind as to report Activity for each listed record?
1. Oc1ccccc1-c1nnn(-c2ccccc2O)n1
2. Oc1ccccc1-c1nc(-c2ccccc2OCc2ccccc2)no1
3. Oc1ccccc1-c1nc(-c2ccccc2-c2ccccc2)no1
4. Oc1ccc(Br)cc1-c1nnc(-c2cccnc2)o1
5. COc1ccccc1-c1noc(-c2ccccc2O)n1
6. Oc1ccccc1-c1nnc(-c2ccccc2O)o1
7. Oc1ccccc1-c1noc(-c2cccs2)n1

1: ***; 2: ***; 3: ***; 4: ***; 5: ***; 6: ***; 7: ***

Would you be so kind as to report Activity for each listed record?
1. Oc1ccccc1-c1cnc(-c2ccccc2O)s1
2. Oc1ccccc1-c1nc(-c2ccccc2Br)no1
3. COc1ccc(-c2ccccc2)c(-c2nnc(-c3ccccc3O)o2)c1O
4. COc1ccccc1-c1nc(-c2ccccc2O)no1
5. c1cncc(-c2noc(-c3cnc4ccccc4c3)n2)c1

1. ***
2. ****
3. ***
4. ****
5. ***

###

target: hRRM1 (Homo sapiens, UniProt P23921); construct: made in house; host or cells: E. coli BL21 DE3 (RIL); assay: hRRM1 enzyme activity inhibition (RR radioactivity assay, boronate chromatography); format: biochemical; parameters: key: Compounds which are found to have extremely high potency are classified as “****”; Compounds which are found to have very high potency of protein synthesis are classified as “***”; conditions: potency ranking by minimum concentration required to inhibit enzyme activity; six concentrations 1-100 μM incubated with hRRM1 30 minutes, diluted by a factor of 5
MEASURE_NAME: Activity

Oc1ccccc1-c1nc(-c2cccnc2)no1; ****
COc1ccc(-c2ccsc2)c(-c2nnc(-c3ccccc3O)o2)c1O; ***
c1cncc(-c2noc(-c3cccs3)n2)c1; ***
Oc1ccccc1-c1c[nH]c(-c2ccccc2O)n1; ***
Oc1ccccc1-c1cn(-c2ccccc2O)nn1; ***
COc1ccc(-c2cnc(-c3ccccc3O)s2)cc1; ***

Below: the item to evaluate.
Request body: readout Activity, system hRRM1 (Homo sapiens, UniProt P23921), query c1cncc(-c2noc(-c3cccnc3)n2)c1 . Return the value.
****
